Measured kon of individual entries
- EXPERIMENTAL SYSTEM: T1, human VEGF-A (human, UniProt P15692-4 27-191, limits assumed)
- T1 construct: also called huVEGF-A
- T1 sequence (P15692 other isoform, or with tags, fused parts or gaps limits assumed): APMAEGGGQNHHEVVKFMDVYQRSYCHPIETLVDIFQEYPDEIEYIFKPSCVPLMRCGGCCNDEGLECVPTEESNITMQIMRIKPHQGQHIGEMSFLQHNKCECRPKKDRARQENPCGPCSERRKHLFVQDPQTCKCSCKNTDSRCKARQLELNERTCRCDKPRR
- PROTOCOL NOTES: SPR (Biacore), antibody captured by anti-human Fc, VEGF-A injected
A number alone suffices; assume M⁻¹ s⁻¹.

hBDB-4G8.11 (antibody, V domains shown, Humanized IgG made from pHybE vectors in HEK293 cells) VH: EIQLVQSGAEVKKPGASVKVSCKASGYTFTNYGMYWVRQAPGQGLEYMGWINTETGKPTYADDFKGRFTFTLDTSTSTAYMELRSLRSDDTAVYFCARTNYYYRSYIFYFDYWGQGTMVTVSS VL: ATQLTQSPSLSASVGDRVTITCRASESVSTHMHWYQQKPGKQPKLLIYGASNLESGVPSRFSGSGSGTDFTLTISSLQPEDFATYFCQQSWNDPFTFGQGTKLEIK: 2.6e+07

Query: Name the recorded kon for hBEW-9E10.1 (antibody, V domains shown, Humanized IgG made from pHybE vectors in HEK293 cells; also called AB642 (9E10.1)) VH: EIQLVQSGSELKKPGASVKVSCKASGYTFTNYGMYWVKQAPGQGLEYMGWIDTETGRPTYADDFKGRFVFSLDTSVSTAYLQISSLKAEDTAVYFCARWSGDTTGIRGPWFAYWGQGTLVTVSS VL: DIRMTQSPSSLSASVGDRVTIECLASEDIYSDLAWYQQKPGKSPKLLIYNANGLQNGVPSRFSGSGSGTDYSLTISSLQPEDVATYFCQQYNYFPGTFGQGTKLEIK .
Response: 1.2e+07
